What Activity was measured for each of the following?
- STUDY TARGET: Peroxisome proliferator-activated receptor gamma (Homo sapiens)
- ASSAY: Transactivation of PPARgamma at 10 uM in CV1 cells
- Type: functional, cell-based
- MEASUREMENT CONDITIONS: CV-1
Answers are plain numbers.

The cases that follow already have their Activity on record.
[[record]]
compound = "CN(CCOc1ccc(CC2SC(=O)NC2=O)cc1)C(=O)CCCCC(S)CCSC(=O)CCC(=O)O (configuration not stated)"
reading = 177

[[record]]
compound = "CN(CCOc1ccc(CC2SC(=O)NC2=O)cc1)C(=O)CCCCC(S)CCS (configuration not stated)"
reading = 129

[[record]]
compound = "CN(CCOc1ccc(CC2SC(=O)NC2=O)cc1)C(=O)CCCCC(CCSC(=O)CN)SC(=O)CN.Cl.Cl (configuration not stated)"
reading = 71

[[record]]
compound = "CC(=O)SCCC(CCCCC(=O)N(C)CCOc1ccc(CC2SC(=O)NC2=O)cc1)SC(C)=O (configuration not stated)"
reading = 150

[[record]]
compound = "CC(=O)SC(CCCCC(=O)N(C)CCOc1ccc(CC2SC(=O)NC2=O)cc1)CCSC(=O)CCC(=O)O (configuration not stated)"
reading = 168


The following compounds each have a reported value; give each one's Activity.
1. CN(CCOc1ccc(CC2SC(=O)NC2=O)cc1)C(=O)CCCCC(CCSC(=O)CCC(=O)O)SC(=O)CCC(=O)O (configuration not stated)
2. CC(=O)SC(CCCCC(=O)N(C)CCOc1ccc(CC2SC(=O)NC2=O)cc1)CCSC(=O)CN (configuration not stated)

[60, 138]
